Please respond with reported TGI for every item in the list.
Tested on: CAKI-1 renal
Experiment: NCI tumour cell line growth inhibition, 48 h

Query: # value lookup — system CAKI-1 renal, readout TGI, item NCCSSCCN
Response: > 100 µM

Query: Field entry: CS(=O)(=O)CCNCc1cc(-c2cc3c(Nc4ccc(OCc5cccc(F)c5)c(Cl)c4)ncnc3s2)cs1
Response: > 25 µM

Query: Field entry: O=C(O)C(O)C(O)C(=O)O (stereo unspecified)
Response: > 100 µM

Query: Field entry: N#CN/C(N)=N/C/N=C(\N)NC#N
Response: > 100 µM

Query: Field entry: COc1cc2ncn(-c3cc(OCc4ccccc4C(F)(F)F)c(C(=O)N(C)C)s3)c2cc1OC
Response: > 25 µM

Query: Field entry: COC(=O)C1C(O)CCC2CN3CCc4c([nH]c5ccccc45)C3CC21 (stereo unspecified)
Response: > 100 µM

====

Test system: MOLT-4 leukemia
Assay: NCI tumour cell line growth inhibition, 48 h
quantity.kind: TGI

Query: # value lookup — system MOLT-4 leukemia, readout TGI, item CCC(=O)c1c(NOC2OCC(OC(C)=O)C(OC(C)=O)C2OC(C)=O)nc(OC)n(C)c1=O (stereo not drawn)
Response: > 100 µM

Query: Field entry: CCOC(=O)C1=C(O)C2C3CC4C2C(O)=C(C(=O)OCC)C2C1C3C42 (stereo not drawn)
Response: > 100 µM

Query: Field entry: [N-]=[N+]=NC1OC(=O)C(Cl)=C1N=P(c1ccccc1)(c1ccccc1)c1ccccc1 (stereo not drawn)
Response: 8.72 µM

Query: Field entry: COc1cc(C2SCCCCCCCCCCSC(c3ccc(O)c(OC)c3)SCCCCCCCCCCS2)ccc1O (stereo not drawn)
Response: > 100 µM

Query: Field entry: NCCSSCCN
Response: > 100 µM

Query: Field entry: c1cc2c(s1)-c1sccc1C21OCCO1
Response: > 100 µM

Query: Field entry: CN(C(=O)C12C3C4C5C3C1(C(=O)C13C6C7C8C6C1C8C73)C5C42)C(C)(C)C (stereo not drawn)
Response: > 50 µM

Query: Field entry: Cc1ccc(/C=N/n2c(-c3ccc(C)cc3)n[nH]c2=O)cc1
Response: > 100 µM

====

Test system: CCRF-CEM leukemia
Assay: NCI tumour cell line growth inhibition, 48 h; in the data active means GI50 below about 0.43 µM; inactive means the rest
Please answer using one outcome listed in active, inactive

Query: Please share the test call associated with CCC(O)c1ccc(Br)cc1NC(=O)c1cccc(Cl)c1 (stereo not given) .
Response: inactive

Query: Field entry: CC(=O)c1c(C)nc(SSc2nc(C)c(C(C)=O)c(-c3ccc(Cl)cc3)c2C#N)c(C#N)c1-c1ccc(Cl)cc1
Response: inactive

Query: Field entry: CS(=O)(=O)CCNCc1cc(-c2cc3c(Nc4ccc(OCc5cccc(F)c5)c(Cl)c4)ncnc3s2)cs1
Response: inactive

Query: Field entry: COc1ccc(-c2ccncc2)cc1C(N)=O
Response: inactive

Query: Field entry: COc1ccc(/C=C/C(=O)/C=C/c2cc3ccccc3[nH]c2=O)cc1
Response: inactive

Query: Field entry: CCOC(=O)Nc1nc2ccc(OC)cc2s1
Response: inactive

Query: Field entry: O=c1c2cc(F)ccc2sc2c(N3CCNCC3)nc3ccc(F)cc3c12
Response: inactive

Query: Field entry: Cc1ncc(C(=O)Nc2ccc(CN3CCN(C)CC3)c(C(F)(F)F)c2)cc1C#Cc1cnc2cccnn12
Response: active

Query: Field entry: O=C(O)c1ccc(NCn2nc(-c3ccccc3O)oc2=S)cc1
Response: inactive

Query: Field entry: O=C(Nc1cc(C(F)(F)F)ccc1Cl)c1ccc(NC2=C(Cl)C(=O)N(Cc3ccccc3)C2=O)cc1
Response: inactive
